// data source = the supplement of paper PMC13380429

Recorded cell viability values for a group of molecules are listed next.
- Tested on: Caco-2
- TEST NAME: cell viability relative to DMSO; higher = less toxic
- DETAILS: 72 h; 100 nM
Respond numerically; units are % and should not be typed.

Consider the reported cell viability for these molecules:
Supply cell viability measured with Caco-2 for CC=CC1=C(C(=O)O)N2C(=O)[C@@H](NC(=O)[C@H](N)c3ccc(O)cc3)[C@H]2SC1 (mixture of isomers) .
82.7

Supply cell viability measured with Caco-2 for `CN(C)c1nc(N(C)C)nc(N(C)C)n1` .
99.8

Supply cell viability measured with Caco-2 for `CC(=O)c1ccc2c(c1)[C@H](NC(=O)c1ccc(F)c(Cl)c1)[C@H](O)C(C)(C)O2` .
81.3

Supply cell viability measured with Caco-2 for `CC(C)c1cc(-c2n[nH]c(=O)n2-c2ccc3c(ccn3C)c2)c(O)cc1O` .
37.4

Others:
Supply cell viability measured with Caco-2 for `FC(F)(F)c1cc(NC(=S)Nc2ccc(Br)cc2-c2nnn[nH]2)cc(C(F)(F)F)c1` .
95.3

* * *

- System: Caco-2
- TEST NAME: cell viability relative to DMSO; higher = less toxic
- DETAILS: 72 h; 1000 nM
ENDPOINT NAME: cell viability

Consider the reported cell viability for these compounds:
Return value of cell viability for input CC(C)NCC(O)COc1cccc2[nH]c3ccccc3c12 (stereo not given) , no commentary.
98.1%

Return value of cell viability for input `Cc1c(NC(=O)N2CCOCC2)ccc2c1c1ccccc1n2C(C)C` , no commentary.
101%

// next entry
Return value of cell viability for input `Nc1c2c(nc3c1CCC3)CCCC2` , no commentary.
91.8%

* * *

- Tested on: Calu-3
- TEST NAME: cell viability relative to DMSO; higher = less toxic
- DETAILS: 72 h; 10 nM
Recorded cell viability values for a group of molecules are listed next.
Respond numerically; units are % and should not be typed.

Consider the reported cell viability for these molecules:
Return value of cell viability for input CCN(CCO)CCCC(C)Nc1ccnc2cc(Cl)ccc12 (centres undefined) [hydroxychloroquine] , no commentary.
105

Return value of cell viability for input `CC(=O)c1ccc2c(c1)[C@H](NC(=O)c1ccc(F)c(Cl)c1)[C@H](O)C(C)(C)O2` , no commentary.
100

Return value of cell viability for input `OCCN1CCN(CCCN2c3ccccc3C=Cc3ccccc32)CC1` , no commentary.
93.3

// next entry
Return value of cell viability for input `O=C(O)c1cc(O)c2c3nc4ccccc4oc-3cc(=O)c2n1` , no commentary.
109

* * *

Recorded relative viability EC50 values for a group of compounds are listed next.
- System: Caco-2
- TEST NAME: relative viability EC50 (midpoint between 100% and the lowest measured viability); higher = less toxic
- DETAILS: 72 h

Return value of relative viability EC50 for input `Oc1ccc(Cl)c2c1CCC2` , no commentary.
> 10 µM

Others:
Return value of relative viability EC50 for input `COc1cccc2c1C(=O)c1c(O)c3c(c(O)c1C2=O)C[C@@](O)(C(C)=O)C[C@@H]3O[C@H]1C[C@H](N)[C@H](O)[C@H](C)O1` , no commentary.
0.145 µM

Return value of relative viability EC50 for input `CCCN(CCC)C(=O)C1=Cc2ccc(-c3ccc(C(=O)N4CCCC4)cc3)cc2N=C(N)C1` , no commentary.
> 10 µM

Return value of relative viability EC50 for input O=P(O)(O)C(O)(Cc1cccnc1)P(=O)(O)O [risedronate] , no commentary.
> 10 µM

Return value of relative viability EC50 for input `COC(=O)[C@H](NC(=O)c1cc(-c2ccccc2)nc2ccccc12)c1ccccc1` , no commentary.
> 10 µM

Return value of relative viability EC50 for input CCN(CC)C(=O)Nc1ccc(OCC(O)CNC(C)(C)C)c(C(C)=O)c1 (stereo unspecified) , no commentary.
> 10 µM

Return value of relative viability EC50 for input `Cc1c(NC(=O)N2CCOCC2)ccc2c1c1ccccc1n2C(C)C` , no commentary.
> 10 µM

Return value of relative viability EC50 for input `C=C1CC/C=C(\C)CC[C@@H]2[C@@H]1CC2(C)C` , no commentary.
> 10 µM

Return value of relative viability EC50 for input `O=C(O)CCCN1CCC(O[C@@H](c2ccc(Cl)cc2)c2ccccn2)CC1` , no commentary.
> 10 µM

Return value of relative viability EC50 for input `C[C@H]1[C@H](C)CC[C@]2(C(=O)O)CC[C@]3(C)C(=CC[C@@H]4[C@@]5(C)C[C@@H](O)[C@H](O)[C@@](C)(CO)[C@@H]5CC[C@]43C)[C@H]12` , no commentary.
> 10 µM

Return value of relative viability EC50 for input `CCOC(=O)Nc1ccc(NCc2ccc(F)cc2)cc1N` , no commentary.
> 10 µM

Return value of relative viability EC50 for input `N[C@@H]1c2cccnc2[C@H](OC(=O)N2CCC(n3c(=O)[nH]c4ncccc43)CC2)CC[C@H]1c1cccc(F)c1F` , no commentary.
> 10 µM

Return value of relative viability EC50 for input NCCCC(O)(P(=O)(O)O)P(=O)(O)O [alendronate] , no commentary.
> 10 µM

Return value of relative viability EC50 for input `C[C@H](c1ccc(F)cc1CCCC(=O)O)N(c1cc(F)ccc1F)S(=O)(=O)c1ccc(Cl)cc1` , no commentary.
> 10 µM

Return value of relative viability EC50 for input `CC[C@H](C)[C@H](N)C(=O)O` , no commentary.
> 10 µM

Return value of relative viability EC50 for input `NNCCc1ccccc1` , no commentary.
> 10 µM

* * *

- System: HepG2
- TEST NAME: cell viability relative to DMSO; higher = less toxic
- DETAILS: 72 h; 10000 nM
Recorded cell viability values for a group of compounds are listed next.

Return value of cell viability for input `Nc1ncnc2c1c(-c1cnc3[nH]ccc3c1)nn2C1CCCC1` , no commentary.
11.4%

Return value of cell viability for input `Cc1cc(C(=O)Nc2nc3cccc(Cl)c3n2[C@@H]2CCCCN(C(=O)/C=C/CN(C)C)C2)ccn1` , no commentary.
32.1%

Return value of cell viability for input `O=C1C=C2C=C[C@@H]3C[C@@]2(O1)[C@H]1CCCCN31` , no commentary.
99.8%

* * *

- Tested on: HepG2
- TEST NAME: cell viability relative to DMSO; higher = less toxic
- DETAILS: 72 h; 10000 nM
ENDPOINT NAME: cell viability (%)
Respond numerically; units are % and should not be typed.

Return value of cell viability for input `Nc1nc(-c2ccc(Cl)c(Cl)c2)c(-c2ccncc2)s1` , no commentary.
112

Others:
Return value of cell viability for input `CNC(=O)c1ccc2c(c1)CCO[C@H]2CCN1CCN(c2ccc(C(N)=O)cc2)CC1` , no commentary.
99.6

Return value of cell viability for input `C[C@H]1[C@H](C)CC[C@]2(C(=O)O)CC[C@]3(C)C(=CC[C@@H]4[C@@]5(C)C[C@@H](O)[C@H](O)[C@@](C)(CO)[C@@H]5CC[C@]43C)[C@H]12` , no commentary.
88.9

Return value of cell viability for input `CC(C)(CCCCCC(O)CCCCCC(C)(C)C(=O)O)C(=O)O` , no commentary.
102

Return value of cell viability for input Cc1cc(OI)c(C(C)C)cc1-c1cc(C(C)C)c(OI)cc1C [thymol-iodide] , no commentary.
93.7

Return value of cell viability for input `C=C(C)[C@@H]1CC[C@]2(C(=O)O)CC[C@]3(C)[C@H](CC[C@@H]4[C@@]5(C)CC[C@H](O)C(C)(C)[C@@H]5CC[C@]43C)[C@@H]12` , no commentary.
113

Return value of cell viability for input COc1cc2c(cc1OC)-c1c(C)c3ccc(OC)c(OC)c3c[n+]1CC2 [dehydrocorydaline] , no commentary.
95.7

* * *

Recorded cell viability values for a group of molecules are listed next.
- Tested on: Caco-2
- TEST NAME: cell viability relative to DMSO; higher = less toxic
- DETAILS: 72 h; 1000 nM
Respond numerically; units are % and should not be typed.

Consider the reported cell viability for these molecules:
Return value of cell viability for input CC1Nc2ccc(Cl)cc2S(=O)(=O)N1 (centres undefined) [IDRA-21] , no commentary.
104

Return value of cell viability for input COc1cc(-c2ccc(=O)[nH]n2)ccc1OC(F)F [zardaverine] , no commentary.
96.3

Return value of cell viability for input CSc1ccc2c(c1)[C@H](N1CCN(C)CC1)Cc1ccccc1S2 (racemic) [metitepine] , no commentary.
102

Return value of cell viability for input CCCCc1nc(-c2ccc(OCCCN(CC)CC)cc2)cn1-c1ccc(Oc2ccc(Cl)cc2)cc1 [azeliragon] , no commentary.
93.5

Return value of cell viability for input CC(C)(C)c1ccc2cc(C#N)c(C#N)cc2c1 [BRD9876] , no commentary.
96

Return value of cell viability for input O=C(O)CCC/C=C\C[C@@H]1[C@@H](/C=C/[C@@H](O)COc2cccc(Cl)c2)[C@H](O)C[C@@H]1O (racemic) [cloprostenol-(+/-)] , no commentary.
97.7

Others:
Return value of cell viability for input COc1cc2c(cc1OC)-c1c(C)c3ccc(OC)c(OC)c3c[n+]1CC2 [dehydrocorydaline] , no commentary.
101

Return value of cell viability for input N#Cc1cnc2cnc(NCc3cccnc3)cc2c1Nc1ccc(F)c(Cl)c1 [TC-S-7006] , no commentary.
88.3

Return value of cell viability for input COc1cc(NC(=O)c2cccc(-n3cc(NC(=O)Nc4cccc(C)c4)cn3)c2)cc(OC)c1OC [SR-3576] , no commentary.
85.2
